Test system: NCI/ADR-RES ovarian
Assay: NCI tumour cell line growth inhibition, 48 h
measured attribute: TGI

These solved cases illustrate the format of a correct answer.
COC(=O)C1CC2CCC1(O[Si](C(C)C)(C(C)C)C(C)C)C(O)C2 (configuration not stated)    > 100 µM
COC(=O)C(Cc1ccccc1)NP(=O)(O)OCC1OC(n2cc(Br)c(=O)[nH]c2=O)CC1O (configuration not stated)    > 100 µM
CC1(C)C2CCC13C(=O)C1OC3(C2)C2C(=O)c3cc4ccccc4cc3C(=O)C12 (configuration not stated)    15.9 µM
CC1CCC2(O)C3(C)CC4(O)OC2(C1O)C1(O)C3(O)C(OC(=O)c2ccc[nH]2)C(O)(C(C)C)C41C (configuration not stated)    > 100 µM
C[C@]12CC[C@@H]3c4ccc(OC(=O)N(CCCl)CCCl)cc4CC[C@H]3[C@@H]1CC[C@@H]2O    8.81 µM

**Q:** State the recorded TGI for this entry: CC(C)(C)[Si](C)(C)OCC1OC(n2cnc3c(N)ncnc32)CC1O (configuration not stated)
**A:** > 100 µM

**Q:** Could you do the same for C=CCOc1cc(NC(=S)c2ccoc2C)ccc1OC , please?
**A:** > 100 µM

---

Tested on: NCI-H460 lung
Test: NCI tumour cell line growth inhibition, 48 h
measured attribute: TGI (µM)
Your answer should be a plain number; it is taken to be in µM.

CC(=O)OCCCC(NC(=O)OC(C)(C)C)C(=O)NC(CCCOC(C)=O)C(=O)NC(Cc1ccc([N+](=O)[O-])cc1)C(=O)NCC(=O)OCc1ccccc1 (centres undefined)    29.5

// next item, TGI requested
**Q:** Quick one: TGI for Clc1nc(Cl)c2ncn(CC3(Cn4cnc5c(Cl)nc(Cl)nc54)COC3)c2n1 ?
**A:** 0.447

---

Test system: UACC-257 melanoma
Test: NCI tumour cell line growth inhibition, 48 h
In this section, each of the molecules is paired with its reported TGI.

Example molecules with recorded TGI:
Cc1cc2c(cc1Cl)SC(NNC(=O)c1ccco1)=NS2(=O)=O    > 10 µM
COc1cc(C(O)CCBr)c(OC)cc1C (configuration not stated)    > 100 µM
N#CC1(C#N)C2(c3ccccc3)OC(c3ccccc3)(c3cc4ccccc4cc32)C1(C#N)C#N    > 54.2 µM
OC(Cc1ccncc1)C(Cl)(Cl)Cl (configuration not stated)    > 100 µM
CCOC(=O)c1cc(=O)c2ccnc3c2n1CCS3    > 100 µM
COC(=O)C1=C(C)NC(C)=C(C(=O)OC)C1c1ccccc1NO    > 100 µM
CC1=C(c2ccccc2)C(c2ccccc2)=C(c2ccccc2)C2(c3ccccc3)C(=O)C(C)CN12 (configuration not stated)    > 100 µM
CS(=O)(=O)OC1CCC2(C#N)CCC1C2=O (configuration not stated)    > 100 µM

**Q:** Which TGI value is on record for NC(=O)Nc1ccc(S(=O)(=O)Nc2ccc(S(N)(=O)=O)cc2)cc1 ?
**A:** > 100 µM

**Q:** Next molecule: Cc1c(C)c(C)c(-n2c(=O)n(C)c(=O)n2-n2c(=O)n(C)c(=O)n2-c2c(C)c(C)c(C)c(C)c2C)c(C)c1C
**A:** > 100 µM

**Q:** And for CC1(C)CC(C2=NCCO2)CC(C)(C)N1 ?
**A:** > 100 µM

**Q:** Field entry: C=C(C)C(O)CCC1(C)C=Cc2c(c(C)cc3c2[nH]c2ccccc23)O1 (configuration not stated)
**A:** 20.5 µM

**Q:** And then Cc1nnn[n-]1.N.N.N.N.N.[Cl-].[Co+3] , what is it?
**A:** > 100 µM

**Q:** Now try CNC(=O)Nc1nc2ccc([N+](=O)[O-])cc2[nH]1 .
**A:** > 100 µM

---

Listed below: TGI values for each entry.
Test system: ACHN renal
Experiment: NCI tumour cell line growth inhibition, 48 h

c1cncc(C2(c3cc4ccccc4[nH]3)COCO2)c1 (stereo not given)    > 100 µM
COC(=O)[C@H](Cc1ccccc1)NP(=O)(OCCC#N)OCC1OC(n2cc(C)c(=O)[nH]c2=O)CC1N=[N+]=[N-] (stereo not given in full)    > 100 µM
CN1Cc2cc3cc4c(cc3nc2N(C)C1)OCCO4    > 100 µM
CC1OC(OC2C(O)COC(OC3C(C)OC(OC4C(OC(=O)[C@]56CCC(C)(C)C[C@@H]5C5=CCC7[C@@]8(C)C[C@H](O)[C@H](OC9OC(CO)C(O)C(OC%10OC(CO)C(O)C(O)C%10O)C9O)[C@@](C)(CO)[C@@H]8CC[C@@]7(C)[C@]5(C)CC6)OCC(O)C4O)C(O)C3OC3OCC(O)(CO)C3O)C2O)C(O)C(O)C1O (stereo not given in full)    19.7 µM

**Q:** What value of measured TGI is listed for O=C(O)CCCSC(=O)Nc1ccc(N=Nc2ccccc2)cc1 ?
**A:** > 100 µM

**Q:** Same thing, different compound: C[C@H](NC(=O)[C@@H](C)N)[C@H](Oc1ccc2c(cnn2-c2ccc(F)cc2)c1)c1ccc2c(c1)OCCO2
**A:** 4.9 µM

**Q:** Param item: CC(=O)N1C(OC(C)C)CC(C)N1c1ccccc1 (stereo not given)
**A:** > 10 µM

**Q:** Next entry: N#CC(C#N)=C1c2ccccc2C(=NN)c2ccccc21
**A:** > 63.9 µM

**Q:** Query Clc1nc(Cl)c2ncn(CC3(Cn4cnc5c(Cl)nc(Cl)nc54)COC3)c2n1 next
**A:** 1.12 µM

**Q:** Another compound: CN(C)CCCNC(=O)c1c(O)c2ccccc2[nH]c1=O
**A:** > 100 µM

**Q:** Now the compound COc1ccc2[nH]cc(-c3ccc(-c4c[nH]c5ccc(OC)cc45)s3)c2c1
**A:** 15.9 µM

**Q:** Try CC(=O)OC/C=C/[C@H](O[Si](C)(C)C(C)(C)C)[C@@H](O)/C=C/COC(C)=O next.
**A:** > 100 µM

**Q:** # iterate: C/C(=C(/C)c1ccc(O)cc1)c1ccc(O)cc1
**A:** > 100 µM

**Q:** What about this compound? O=c1cc(-c2ccccc2)c2ccccc2[nH]1
**A:** > 100 µM

**Q:** Cool, now Cc1cc(C)n(-c2nsc3ccccc23)n1
**A:** > 100 µM

**Q:** Now the same for c1ccc(-c2nnc(-c3ccccn3)c3c2C[C@@H]2C[C@@H]4Cc5c(-c6ccccn6)nnc(-c6ccccn6)c5[C@@H]4[C@H]32)nc1
**A:** > 100 µM

**Q:** How about this compound: COC(=O)C1CC2CCC1(O[Si](C(C)C)(C(C)C)C(C)C)C(O)C2 (stereo not given)
**A:** 80.4 µM

**Q:** Now give it for CC(=O)OCC1=C(C(=O)O)N2C(=O)C(NC(=O)CSc3ccncc3)C2SC1 (stereo not given) too.
**A:** > 100 µM

**Q:** Proceed to C=C1C(=O)O[C@H]2[C@H]1CC/C(COC(=O)CSCSCC(=O)OC/C1=C/CC[C@@]3(C)O[C@H]3[C@H]3OC(=O)C(=C)[C@@H]3CC1)=C\CC[C@@]1(C)O[C@@H]21
**A:** 2.6 µM

**Q:** What do we get for CN1CCN(C(=S)N(C(=O)c2ccc(Cl)cc2)c2ccccc2)CC1 ?
**A:** > 100 µM

---

Measured TGI of individual entries
Test system: KM12 colon
Assay: NCI tumour cell line growth inhibition, 48 h

COc1cc(/C=C\c2cc(OC)c(OC)c(OC)c2)cc(NC(=O)/C=C/c2cc(OC)c(OC)c(OC)c2)c1OC    > 100 µM

**Q:** Please look up its TGI: O=C(CCCCCCNC(=O)c1cnc(N(c2ccccc2)c2ccccc2)nc1)NO
**A:** 21.7 µM

**Q:** Now give it for COC(=O)C1=C(C)NC(C)=C(C(=O)OC)C1c1ccccc1NO too.
**A:** > 100 µM

**Q:** Same question for CCc1cc2c(c3c1CCC3=O)CC1(Cc3ccc(C)cc3C1)C2 (centres undefined) please.
**A:** > 100 µM

---

Tested on: SN12C renal
Experiment: NCI tumour cell line growth inhibition, 48 h
Where a SMILES comes first, the peptide text is derived from it. [ ]: non-standard residue; d: D form. pGlu = O=C1CC[CH](C(=O)O)N1
measured attribute: GI50

Observe how each entry below is paired with its result.
N.N.N.N.[Co+3].[N-]=[N+]=[N-].[N-]=[N+]=[N-].[N-]=[N+]=[N-]    > 100 µM
O=c1[nH]c(=O)c2cn[nH]c2[nH]1    > 100 µM
CN(O)C(=O)SCC(NC(=O)CCC(N)C(=O)O)C(=O)NCC(=O)O (stereo not given)    > 2000 µM

**Q:** Fill blank: measured GI50 of the compound COc1ccc(-c2nn(-c3cccc(Cl)c3)cc2-c2cc(-c3cccs3)[nH]c(=S)n2)cc1 is ____.
**A:** 3.92 µM

**Q:** What do you get for CCNC(=O)C1CCCN1C(=O)C(CCCN=C(N)N)NC(=O)C(CC(C)C)NC(=O)C(CC(C)C)NC(=O)C(Cc1ccc(O)cc1)NC(=O)C(CO)NC(=O)C(Cc1c[nH]c2ccccc12)NC(=O)C(Cc1cnc[nH]1)NC(=O)C1CCC(=O)N1 (stereo not given) ([pGlu]HWSYLLRP-NHEt; configuration not given here) ?
**A:** > 100 µM

**Q:** What do we get for CN(CCO)CC[C@H](CSc1ccccc1)Nc1ccc(S(=O)(=O)NC(=O)c2ccc(N3CCC([C@@H](O)c4ccccc4-c4ccc(Cl)cc4)CC3)cc2)cc1S(=O)(=O)C(F)(F)F ?
**A:** 2.99 µM

**Q:** Another compound: CCCCCCCCNc1cc2c3c(c1)CCCN3CCC2
**A:** 2.56 µM

**Q:** Next: O=C(CCCCCCNC(=O)c1cnc(N(c2ccccc2)c2ccccc2)nc1)NO
**A:** 3.85 µM

**Q:** Similarly, COc1ccc2[nH]cc(-c3ccc(-c4c[nH]c5ccc(OC)cc45)s3)c2c1 ?
**A:** 11.1 µM

**Q:** Please give the result for CC1(C)C2CCC13C(=O)C1OC3(C2)C2C(=O)c3cc4ccccc4cc3C(=O)C12 (stereo not given) too.
**A:** 19.3 µM

Entry source: PubChem BioAssay (NCI)
